The origin of these recorded values is paper PMC7819943.

target: OsWRKY34 (Oryza sativa, UniProt Q0JBA9 1-250); assay: protein-binding microarray (RPBM); PBS, 2% BSA, 51.3 ng/ul salmon testes DNA, 50 uM zinc acetate, 200 nM TF, 25 C, 1 h; high values mean tight binding; conditions: protein: recombinant; tags: N-terminal polyhistidine and DsRed monomer fusion (pET32a); label: CyDye5-dUTP incorporated in the synthesized complementary strand; 3' TTTTT single-stranded linker to array surface; dsDNA, one strand shown
Sequence (Q0JBA9 entry or part of it): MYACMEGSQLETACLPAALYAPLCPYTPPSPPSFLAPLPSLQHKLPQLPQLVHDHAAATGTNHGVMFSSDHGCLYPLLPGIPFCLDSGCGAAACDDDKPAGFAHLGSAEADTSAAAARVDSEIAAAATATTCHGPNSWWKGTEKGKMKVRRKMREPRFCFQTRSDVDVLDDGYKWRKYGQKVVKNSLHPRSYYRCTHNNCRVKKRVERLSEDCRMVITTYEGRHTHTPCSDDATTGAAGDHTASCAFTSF
Over roughly 68,000 sequences, “fluorescence intensity (a.u.)” has its median near 9,100; the highest 2% begin near 16,000. This is one part of a sample in which the highest values are shown more often than they occur.
Item-by-item account of binding signal

Worked set:
Record Sequence	Observation Type	Value Observed
TCATCTCCATCTTTTTATTTACACGCACACTTCTCAAACTCGGAGTCACCTAGTGCAG	binding signal	11100 fluorescence intensity (a.u.)
GAACAACAACATGCCGCACGTGCGTATATATATATATATCCGGAGTCACCTAGTGCAG	binding signal	10800 fluorescence intensity (a.u.)
GAGCACATACTTTGGTCATTAATGGTGATTATAATGATATCGGAGTCACCTAGTGCAG	binding signal	8820 fluorescence intensity (a.u.)
TTAAAACTGAAATTATCGTATGTGCCTTGTCGCCGTGATTCGGAGTCACCTAGTGCAG	binding signal	8090 fluorescence intensity (a.u.)
CGTGTCGCACCACATCCAGCGTCCCACGGCCTACCACCGCCGGAGTCACCTAGTGCAG	binding signal	8700 fluorescence intensity (a.u.)

Prompt line: Give binding signal for TGTGTGTATGCGTTTATAGGAGTAACTGTGTGTGCGTTTACGGAGTCACCTAGTGCAG tested on OsWRKY34 (Oryza sativa, UniProt Q0JBA9 1-250).
Response line: 8150 fluorescence intensity (a.u.)

Prompt line: Give binding signal for ATTATAAGTTGTTTCTTCTTAGGTTGTGTTTAGTTCCTTGCGGAGTCACCTAGTGCAG tested on OsWRKY34 (Oryza sativa, UniProt Q0JBA9 1-250).
Response line: 9250 fluorescence intensity (a.u.)

Prompt line: Give binding signal for ATCCTCTTGTTTCGTACAGGTCACTTAAATAGTTATAAAACGGAGTCACCTAGTGCAG tested on OsWRKY34 (Oryza sativa, UniProt Q0JBA9 1-250).
Response line: 8300 fluorescence intensity (a.u.)

====

Item-by-item account of binding signal
target: OsWRKY34 (Oryza sativa, UniProt Q0JBA9 1-250); assay: protein-binding microarray (RPBM); PBS, 2% BSA, 51.3 ng/ul salmon testes DNA, 50 uM zinc acetate, 200 nM TF, 25 C, 1 h; high values mean tight binding; details: protein: recombinant; tags: N-terminal polyhistidine and DsRed monomer fusion (pET32a); label: CyDye5-dUTP incorporated in the synthesized complementary strand; 3' TTTTT single-stranded linker to array surface; dsDNA, one strand shown
Over roughly 68,000 sequences, “fluorescence intensity (a.u.)” has its median near 9,100; the highest 2% begin near 16,000. The list comes from a sample in which the highest values are over-represented; it also holds close analogues and randomly drawn sequences.

Worked set:
Record Sequence	Value Observed
GGCGGAGCTCGGGATGTGGGAGGAGGAGGGCTATTTATTCCGGAGTCACCTAGTGCAG	14400 fluorescence intensity (a.u.)
GCGGGCGGAGGAGCTCGGGCGTGGGCGGGGAGGGCGGATCCGGAGTCACCTAGTGCAG	20800 fluorescence intensity (a.u.)
CCGGGTGGAGGGCGGGGAAGCGGCGGCGGAACTCCGGGCTCGGAGTCACCTAGTGCAG	8490 fluorescence intensity (a.u.)

Next:
Prompt line: Give the value of binding signal reported for the following: AATGTTGTCCTGTCGGCTGCTTCTGCTCCAACGTCAAGTTCGGAGTCACCTAGTGCAG
Response line: 8140 fluorescence intensity (a.u.)

====

Item-by-item account of binding signal
biological target: OsWRKY34 (Oryza sativa, UniProt Q0JBA9 1-250); assay: protein-binding microarray (RPBM); PBS, 2% BSA, 51.3 ng/ul salmon testes DNA, 50 uM zinc acetate, 200 nM TF, 25 C, 1 h; high values mean tight binding; details: protein: recombinant; tags: N-terminal polyhistidine and DsRed monomer fusion (pET32a); label: CyDye5-dUTP incorporated in the synthesized complementary strand; 3' TTTTT single-stranded linker to array surface; dsDNA, one strand shown
Whole data set: some 68,000 sequences, median “fluorescence intensity (a.u.)” near 9,100, cut for the highest 2% near 16,000. The full list was thinned out, with the highest values kept by preference.

Worked set:
Record Sequence	binding signal
ATATATATATATATATATATATATATGCAGCAACAGGGCCCGGAGTCACCTAGTGCAG	17400 fluorescence intensity (a.u.)
GGGATGTGGCGGGCGGTGGGTCCAGGGAGGAGGAGGAGAACGGAGTCACCTAGTGCAG	15000 fluorescence intensity (a.u.)
GTGGAGGTCGGGGTCGGGGAGGATGAGGAGGAGGGTGTGGCGGAGTCACCTAGTGCAG	10100 fluorescence intensity (a.u.)
TTTCCGCATTTCCGCTCCTCTCTTTTTTACCCTTGACATGCGGAGTCACCTAGTGCAG	8530 fluorescence intensity (a.u.)
TGCGTGTTGTGTGTGTGGGTGATCTTTGGCGCGCCTCGTCCGGAGTCACCTAGTGCAG	8120 fluorescence intensity (a.u.)
ATATATATATATATATATATATATATATATACACACACACCGGAGTCACCTAGTGCAG	22200 fluorescence intensity (a.u.)

Prompt line: Give the value of binding signal reported for the following: AATGTTTGACGCCGTTGACTTTTTTAAAAATGTTTGGCCGCGGAGTCACCTAGTGCAG
Response line: 29800 fluorescence intensity (a.u.)

Prompt line: Give the value of binding signal reported for the following: ACGGTGGCGGGGATGTGGAGGGAGGTGCAGGGGTGCGGGGCGGAGTCACCTAGTGCAG
Response line: 22600 fluorescence intensity (a.u.)

Prompt line: Give the value of binding signal reported for the following: CGCCGCCATTTCCGCCTCTTCTTCTCTTAAACAAAAAGCCCGGAGTCACCTAGTGCAG
Response line: 10200 fluorescence intensity (a.u.)

Prompt line: Give the value of binding signal reported for the following: CGCCGTTGACTTTTTGTTTAACGTTTGACCATTTGTCTTACGGAGTCACCTAGTGCAG
Response line: 24400 fluorescence intensity (a.u.)

Prompt line: Give the value of binding signal reported for the following: GGTCTCAGGTTGTCACTTTTCTATCCAGATTTATCGTAGTCGGAGTCACCTAGTGCAG
Response line: 8110 fluorescence intensity (a.u.)

Prompt line: Give the value of binding signal reported for the following: AGATTCGTGTAGACCCATTGTCTGGCAGCGGCGATCGTCCCGGAGTCACCTAGTGCAG
Response line: 8040 fluorescence intensity (a.u.)

Prompt line: Give the value of binding signal reported for the following: TTGTAAGTTAGGGACCTGTTGTATCTGATTTTTTGGTTGACGGAGTCACCTAGTGCAG
Response line: 8210 fluorescence intensity (a.u.)

Prompt line: Give the value of binding signal reported for the following: ATTTTGACTTTTTCTTGTACTGTTTGACCATTCATCTTATCGGAGTCACCTAGTGCAG
Response line: 16200 fluorescence intensity (a.u.)

Prompt line: Give the value of binding signal reported for the following: ATATATATATATATATATGTGTGTATATATATATATATATCGGAGTCACCTAGTGCAG
Response line: 8920 fluorescence intensity (a.u.)

Prompt line: Give the value of binding signal reported for the following: ATATATATATATATATATATATATATATATATAGGGACAGCGGAGTCACCTAGTGCAG
Response line: 9530 fluorescence intensity (a.u.)

Prompt line: Give the value of binding signal reported for the following: CTTTAATAGTATAGCCAACTACTACCTCGGAATCACCTATCGGAGTCACCTAGTGCAG
Response line: 20300 fluorescence intensity (a.u.)

Prompt line: Give the value of binding signal reported for the following: TGTGAGGTGGGGTCGGGGTGGAAGTGGGTGAGGAGGGGTGCGGAGTCACCTAGTGCAG
Response line: 21700 fluorescence intensity (a.u.)

Prompt line: Give the value of binding signal reported for the following: CTTTTCATCTTCTTGACGACTTGGTTGTTTGATTCATTTACGGAGTCACCTAGTGCAG
Response line: 8830 fluorescence intensity (a.u.)

Prompt line: Give the value of binding signal reported for the following: ACTTTTTAAAACATGTTTGACCGTTCATCTTATTTAAAAACGGAGTCACCTAGTGCAG
Response line: 8690 fluorescence intensity (a.u.)

Prompt line: Give the value of binding signal reported for the following: ATTTTTTCCTCTAATTAAGTCATATCACATCAATTGTTTTCGGAGTCACCTAGTGCAG
Response line: 10200 fluorescence intensity (a.u.)

Prompt line: Give the value of binding signal reported for the following: GGAGAGGAGTGAGGAGGGATTGTGAGGTGGGGTCGGGGTGCGGAGTCACCTAGTGCAG
Response line: 9030 fluorescence intensity (a.u.)
